Test system: Enteroc. spp. 12201
assayRemarks: In vitro antibacterial evaluation, MIC by agar dilution
Assay type: cell-based
assayContext: 18 h
Method: Method for In Vitro Antibacterial Evaluation (Table I) The minimum inhibitory concentration (MIC), the lowest concentration of the antibiotic which inhibits growth of the test organism, is determined by the agar dilution method using Muller-Hinton II agar (Baltimore Biological Laboratories). An inoculum density of 1-5×10^5 CFU/ml and an antibiotic concentration (32-≤0.015 μg/ml) is used. The plates are incubated for 18 hours at 35° C. in a forced air incubator. […]
Counter-ions that a name gives are not always drawn.
// classify: if (MIC < 2 µg/mL) Fulfilled else Not fulfilled

{"compound": "CN(C)c1c(Cl)c(NC=O)c(O)c2c1CC1CC3C(N(C)C)C(O)=C(C(N)=O)C(=O)C3(O)C(O)=C1C2=O.O=S(=O)(O)O (stereo not shown)", "classLabel": "Fulfilled"}
{"compound": "CN(C)[C@@H]1C(O)=C(C(N)=O)C(=O)[C@@]2(O)C(O)=C3C(=O)c4c(O)cc(Cl)c(N)c4CC3CC12 (stereo partly shown) [Compound C, hydrochloride]", "classLabel": "Not fulfilled"}
{"compound": "CN(C)[C@@H]1C(=O)C(C(N)=O)=C(O)[C@@]2(O)C(=O)C3=C(O)c4c(O)cccc4[C@@](C)(O)[C@H]3C[C@@H]12 [K, Tetracycline hydrochloride, reference compound]", "classLabel": "Not fulfilled"}
{"compound": "CN(C)c1c(Cl)c(N)c(O)c2c1CC1CC3[C@H](N(C)C)C(O)=C(C(N)=O)C(=O)[C@@]3(O)C(O)=C1C2=O (stereo partly shown)", "classLabel": "Not fulfilled"}
{"compound": "CN(C)c1c(Cl)cc(O)c2c1CC1CC3[C@H](N(C)C)C(O)=C(C(N)=O)C(=O)[C@@]3(O)C(O)=C1C2=O (stereo partly shown)", "classLabel": "Fulfilled"}

* * *

MIC overview
Tested on: E. coli ATCC 25922
assayRemarks: In vitro antibacterial evaluation, MIC by agar dilution
Format: cell-based
assayContext: Escherichia coli, ATCC25922, 18 h
Structures can show the parent of a compound that is named as a salt.

{"compound": "CN(C)[C@@H]1C(=O)C(C(N)=O)=C(O)[C@@]2(O)C(=O)C3=C(O)c4c(O)cccc4[C@@](C)(O)[C@H]3C[C@@H]12 [K, Tetracycline hydrochloride, reference compound]", "MIC": "0.5 µg/mL"}
{"compound": "COC(=O)Nc1c(Cl)cc2c(c1O)C(=O)C1=C(O)[C@]3(O)C(=O)C(C(N)=O)=C(O)[C@@H](N(C)C)C3CC1C2 (stereo partly shown) [I]", "MIC": "8 µg/mL"}
{"compound": "CN(C)[C@@H]1C(O)=C(C(N)=O)C(=O)[C@@]2(O)C(O)=C3C(=O)c4c(O)cc(Cl)cc4CC3CC12 (stereo partly shown) [Compound E]", "MIC": "8 µg/mL"}
{"compound": "CN(C)c1c(Cl)c(NC=O)c(O)c2c1CC1CC3C(N(C)C)C(O)=C(C(N)=O)C(=O)C3(O)C(O)=C1C2=O.O=S(=O)(O)O (stereo not shown) [F]", "MIC": "0.25 µg/mL"}
{"compound": "CN(C)[C@@H]1C(O)=C(C(N)=O)C(=O)[C@@]2(O)C(O)=C3C(=O)c4c(cc(Cl)c(N)c4O)CC3CC12 (stereo partly shown) [G]", "MIC": "1 µg/mL"}
{"compound": "CN(C)c1c(Cl)cc(O)c2c1CC1CC3[C@H](N(C)C)C(O)=C(C(N)=O)C(=O)[C@@]3(O)C(O)=C1C2=O (stereo partly shown) [B]", "MIC": "8 µg/mL"}
{"compound": "CN(C)c1c(Cl)c(N)c(O)c2c1CC1CC3[C@H](N(C)C)C(O)=C(C(N)=O)C(=O)[C@@]3(O)C(O)=C1C2=O (stereo partly shown) [H]", "MIC": "4 µg/mL"}
